Compiled record: pKi values for UniProtKB P43140 across several sources.
Sequence (P43140 whole entry): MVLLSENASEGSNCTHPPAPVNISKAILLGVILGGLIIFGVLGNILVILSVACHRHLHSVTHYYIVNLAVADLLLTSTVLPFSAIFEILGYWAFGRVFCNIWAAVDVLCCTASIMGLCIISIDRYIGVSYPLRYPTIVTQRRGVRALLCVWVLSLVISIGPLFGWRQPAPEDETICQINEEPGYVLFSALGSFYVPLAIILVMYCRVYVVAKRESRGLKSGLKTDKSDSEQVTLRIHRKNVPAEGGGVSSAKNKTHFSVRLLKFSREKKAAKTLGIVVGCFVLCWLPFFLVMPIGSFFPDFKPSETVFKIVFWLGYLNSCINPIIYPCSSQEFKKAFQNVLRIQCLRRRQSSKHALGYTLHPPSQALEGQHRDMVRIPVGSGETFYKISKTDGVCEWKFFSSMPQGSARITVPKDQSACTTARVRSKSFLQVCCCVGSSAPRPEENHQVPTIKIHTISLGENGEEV
pKi: −log10 of the molar value.
Lab note: compare pKi against 7. Equal or greater, write condition met. Smaller, write condition not met.

COMPOUND: COc1cc2c(cc1OC)C(=O)N(CCN1C[C@@H]3CCc4c(OC)cccc4[C@@H]3C1)CC2
LABEL CLASS: condition met

COMPOUND: COc1ccc(Sc2ccc(C)cc2N2CCNCC2)cc1
LABEL CLASS: condition met

COMPOUND: O=C(NC1CCc2ccc(CCN3CCN(c4nsc5ccccc45)CC3)cc21)c1ccno1 (stereo not drawn)
LABEL CLASS: condition met

COMPOUND: COc1ccccc1N1CCN(CCCCNC(=O)c2cc3ccccc3o2)CC1
LABEL CLASS: condition met

COMPOUND: Cc1[nH]c2ccccc2c1C1CCN(CCCN2CCCCC2)CC1
LABEL CLASS: condition not met

COMPOUND: COc1ccccc1N1CCN(CCCN2C(=O)C3CCCCN3C2=O)CC1 (stereo not drawn)
LABEL CLASS: condition met

COMPOUND: CCS(=O)(=O)Nc1cccc(NC2=NCCN2)c1
LABEL CLASS: condition not met

COMPOUND: COc1cccc2c1CC[C@H]1CN(CCn3c(=O)[nH]c4c(C)cc(C)cc4c3=O)C[C@@H]21
LABEL CLASS: condition met
